assay_name: chemical genetic growth profiling, strain panel (AID 1159580);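 further: tested at 20 µM; growth read once vehicle control cultures reached saturation at 30 °C; 1 = growth at the plate median or of vehicle wells; lower values mean less growth of the strain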
condition_details: S. cerevisiae deletion strains, growth OD, locus YKR091W, strain srl3, active compounds read low
About 2,000 (36%) of roughly 5,500 compounds were called active. Roughly 18% stayed inconclusive and do not appear here. The list shows a part of the results.
test_readout: normalized growth
Please reply with the number alone, leaving off any unit.

{"columns": ["molecule", "quantitative_readout"],
 "data": [
  ["CCc1nc(N)nc(N)c1-c1ccc(Cl)cc1", 0.977]
]}

(Q) Reported normalized growth, molecule Cc1ccc(O)cc1 : ____
(A) 1.02

(Q) Suppose we examine the molecule COc1cc(OC)c2c(c1)O[C@H](c1ccc(OC)c(OC)c1)[C@@H](O)C2 ; what normalized growth value has been reported?
(A) 0.996

(Q) Param item = NC[C@@H]1O[C@H](O[C@@H]2[C@@H](CO)OC(O[C@@H]3[C@@H](O)[C@H](N)C[C@H](N)[C@H]3OC3O[C@H](CN)[C@@H](O)[C@H](O)[C@H]3N)[C@@H]2O)[C@H](N)[C@@H](O)[C@@H]1O (stereo partly drawn) ; retrieve measured normalized growth.
(A) 1.02

(Q) Give the measured normalized growth of COc1ccc2c(c1)OC[C@@H](Cc1ccc(OC)c(OC)c1)[C@@H]2O .
(A) 0.988

(Q) Would you mind telling me what normalized growth value was observed for COC1C(O)C(O)C(O)[C@@H](O)C1O (stereo partly drawn) ?
(A) 0.972

(Q) Reported normalized growth, molecule COc1ccc(-c2coc3c(OC)c(OC)cc(O)c3c2=O)cc1 : ____
(A) 0.999

(Q) Data request, read-out normalized growth, for COc1ccc2c(c1)OC[C@@H](Cc1ccc(OC)c(OC)c1)[C@H]2O
(A) 1

(Q) Which value of normalized growth has been reported for COc1c2c(c(CC=C(C)C)c3oc(=O)c(-c4ccc(O)cc4)c(O)c13)OC(C)(C)C=C2 in the records?
(A) 0.991

(Q) Any idea what normalized growth was measured for CC[C@H]1OC(=O)C[C@@H](O)[C@H](C)[C@@H](O[C@@H]2O[C@H](C)[C@@H](O[C@H]3C[C@@](C)(O)[C@@H](O)[C@H](C)O3)[C@H](N(C)C)[C@H]2O)[C@@H](CC=O)C[C@@H](C)C(=O)/C=C/C(C)=C/[C@@H]1CO[C@@H]1O[C@H](C)[C@@H](O)[C@@H](OC)[C@H]1OC ?
(A) 0.989

(Q) Query (molecule): CC(C)[N+](C)(CCOC(=O)C1c2ccccc2Oc2ccccc21)C(C)C ; field requested: normalized growth
(A) 0.994

(Q) If you can, please state the reported normalized growth value of CCC(C(=O)O)c1ccccc1 (stereo not drawn) .
(A) 0.99

(Q) Need normalized growth, item CC(C)N(C(=O)CCl)c1ccccc1
(A) 1.01

(Q) Look at this molecule and give its reported normalized growth. CC(C(=O)O)c1ccc2c(c1)[nH]c1ccc(Cl)cc12 (stereo not drawn)
(A) 0.988

(Q) Can you look up the measured normalized growth of C/C=C(/C(=C/C)c1ccc(O)cc1)c1ccc(O)cc1 for me?
(A) 0.995

(Q) // query normalized growth value for entry O=C(O)c1cc(=O)c2ccc(Cl)cc2[nH]1
(A) 1.01

(Q) normalized growth lookup needed for C[N+](C)(C)CC(=O)[O-] , thanks.
(A) 0.976

(Q) Look up normalized growth: NC(=O)N1c2ccccc2CC(=O)c2ccccc21
(A) 0.989

Value source: PubChem BioAssay AID1159580
